# System: MCF7
# protocol summary: Cytotoxicity against human MCF7 cells assessed as growth inhibition after 48 hrs by SRB assay
# Type: functional
# conditions used: MCF7, 48 h
observable: GI50
Please state the number and follow it with the unit.

# test smiles, GI50
data = [
    ("COc1cc2c(c(OC)c1OC)-c1cc3c(cc1COC2)OCO3", "400 nM"),
    ("COc1ccc2c(c1OP(=O)([O-])[O-])COCc1cc(OC)c(OC)c(OC)c1-2.[Na+].[Na+]", "400 nM"),
    ("COc1ccc2c(c1O)COCc1cc(OC)c(OC)c(OC)c1-2", "70 nM"),
]

Below: the item to evaluate.
Give GI50 (MCF7) of the following compound: COc1ccc2c(c1)COCc1cc(OC)c(OC)c(OC)c1-2
40 nM
